System: 857933-349-R-J2-PDC complex spheroids, viability;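 also: spheroids exposed to compounds for one week before readout; percent viability relative to vehicle DMSO wells taken as 100%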
PROTOCOL_NOTES: Anticancer human tumor 857933-349-R-J2-PDC patient-derived colon adenocarcinoma cell line growth inhibition [GQUAD]
TEST_CONTEXT: second compound 0.316 µM; first compound 0.316 µM; hits give low values
MEASUREMENT_LABEL: viability, T/C (%)
Give the value, in units of %, as a plain number.

// compound Nc1ccn(C2OC(CO)C(O)C2(F)F)c(=O)n1 (stereo not given) + Cc1[nH]c2ccc(F)cc2c1-c1nc2c3cccnc3c3ncccc3c2[nH]1 , assay 857933-349-R-J2-PDC complex spheroids, viability, viability, T/C value: 53.2

// compound CC1COCCN1c1cc(C2(S(C)(=N)=O)CC2)nc(-c2ccnc3[nH]ccc23)n1 (stereo not given) + CN(C)c1ccc(Nc2c3ccc(NC(=O)CCN4CCCC4)cc3nc3cc(NC(=O)CCN4CCCC4)ccc23)cc1 , assay 857933-349-R-J2-PDC complex spheroids, viability, viability, T/C value: 97.8

// compound CCc1c2c(nc3ccc(O)cc13)-c1cc3c(c(=O)n1C2)COC(=O)[C@]3(O)CC + Cc1[nH]c2ccc(F)cc2c1-c1nc2c3cccnc3c3ncccc3c2[nH]1 , assay 857933-349-R-J2-PDC complex spheroids, viability, viability, T/C value: 11.4

// compound CC(C)(O)C1CCC(Nc2ccc3ncc(-c4cccc(C(F)(F)F)c4)n3n2)CC1 (stereo not given) + Cc1cnc(CNC(=O)c2c(=O)c3ccc(N4CCCN(C)CC4)nc3n3c2sc2ccccc23)cn1 , assay 857933-349-R-J2-PDC complex spheroids, viability, viability, T/C value: 8.9

// compound CC(=O)O[C@H]1C(=O)[C@@]2(C)[C@H]([C@H](OC(=O)c3ccccc3)[C@]3(O)C[C@H](OC(=O)[C@H](O)[C@@H](NC(=O)c4ccccc4)c4ccccc4)C(C)=C1C3(C)C)[C@]1(OC(C)=O)CO[C@@H]1C[C@@H]2O + Cc1cnc(CNC(=O)c2c(=O)c3ccc(N4CCCN(C)CC4)nc3n3c2sc2ccccc23)cn1 , assay 857933-349-R-J2-PDC complex spheroids, viability, viability, T/C value: 5.73

// compound CCCS(=O)(=O)Nc1ccc(F)c(C(=O)c2c[nH]c3ncc(-c4ccc(Cl)cc4)cc23)c1F + Cc1[nH]c2ccc(F)cc2c1-c1nc2c3cccnc3c3ncccc3c2[nH]1 , assay 857933-349-R-J2-PDC complex spheroids, viability, viability, T/C value: 96

// compound O=C(c1cc(Cc2n[nH]c(=O)c3ccccc23)ccc1F)N1CCN(C(=O)C2CC2)CC1 + Cc1cnc(CNC(=O)c2c(=O)c3ccc(N4CCCN(C)CC4)nc3n3c2sc2ccccc23)cn1 , assay 857933-349-R-J2-PDC complex spheroids, viability, viability, T/C value: 26.4

// compound COc1ncnc(C2CC2)c1-c1ncc2cnn(Cc3ccc(-c4nc(C(F)(F)F)cn4C(C)C)cc3)c2n1 + Cc1cnc(CNC(=O)c2c(=O)c3ccc(N4CCCN(C)CC4)nc3n3c2sc2ccccc23)cn1 , assay 857933-349-R-J2-PDC complex spheroids, viability, viability, T/C value: 17.7

// compound C=CCn1c(=O)c2cnc(Nc3ccc(N4CCN(C)CC4)cc3)nc2n1-c1cccc(C(C)(C)O)n1 + Cc1[nH]c2ccc(F)cc2c1-c1nc2c3cccnc3c3ncccc3c2[nH]1 , assay 857933-349-R-J2-PDC complex spheroids, viability, viability, T/C value: 94

// compound O=C(c1cc(Cc2n[nH]c(=O)c3ccccc23)ccc1F)N1CCN(C(=O)C2CC2)CC1 + CN(C)c1ccc(Nc2c3ccc(NC(=O)CCN4CCCC4)cc3nc3cc(NC(=O)CCN4CCCC4)ccc23)cc1 , assay 857933-349-R-J2-PDC complex spheroids, viability, viability, T/C value: 103
